molecular target: T1, PD-L1-Fc (UniProt Q9NZQ7 19-238, limits assumed); assay: competition ELISA, PD-L1-Fc coated 200 ng/well, competitor PD-1-His 5 ug/ml, anti-His-HRP
T1 construct: not shown: Fc part
T1 sequence (Q9NZQ7 19-238 limits assumed): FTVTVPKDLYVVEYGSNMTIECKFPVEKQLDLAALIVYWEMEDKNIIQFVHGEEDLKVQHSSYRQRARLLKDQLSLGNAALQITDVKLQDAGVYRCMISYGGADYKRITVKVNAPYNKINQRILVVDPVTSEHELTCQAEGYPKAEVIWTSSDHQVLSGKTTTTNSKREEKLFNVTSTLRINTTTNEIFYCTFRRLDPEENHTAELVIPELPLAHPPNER
Threshold 0.1 µg/mL: IC50 strictly smaller gives Y, otherwise N.

Binder	Classification
AC9-E3 全抗体 (full antibody, human IgG1/kappa) (antibody, V domains shown, Full antibody expressed in HEK293E from vector pTSE) VH: EVQLVESGGGLVQPGGSLRLSCAASGCTWSDSWDHWVRQAPGKGLEWVDYESTYGGSTYYADSVKGRFTISADTSKNTAYLQMNSLRAEDTAVYYCARRHWNATFDYWGQGTLVTVSS VL: DIQMTQSPSSLSASVGDRVTITCRASQSIHNYLAWYQQKPGKAPKLLIYSASNLPSGVPSRFSGSGSGTDFTLTISSLQPEDFATYYCQQGLHTPPTFGQGTKVEIKR	N
AH10-E3 全抗体 (full antibody, human IgG1/kappa) (antibody, V domains shown, Full antibody expressed in HEK293E from vector pTSE) VH: EVQLVESGGGLVQPGGSLRLSCAASGWTLSDSLQHWVRQAPGKGLEWVGFQSAYGGSTYYADSVKGRFTISADTSKNTAYLQMNSLRAEDTAVYYCARRHYYTAWDYWGQGTLVTVSS VL: DIQMTQSPSSLSASVGDRVTITCRASQSIHNYLAWYQQKPGKAPKLLIYSASNLPSGVPSRFSGSGSGTDFTLTISSLQPEDFATYYCQQGLHTPPTFGQGTKVEIKR	N
BH2-E3 全抗体 (full antibody, human IgG1/kappa) (antibody, V domains shown, Full antibody expressed in HEK293E from vector pTSE) VH: EVQLVESGGGLVQPGGSLRLSCAASGLTWSDSYKHWVRQAPGKGLEWVHWNSTYGGSTYYADSVKGRFTISADTSKNTAYLQMNSLRAEDTAVYYCARRHFASTWDYWGQGTLVTVSS VL: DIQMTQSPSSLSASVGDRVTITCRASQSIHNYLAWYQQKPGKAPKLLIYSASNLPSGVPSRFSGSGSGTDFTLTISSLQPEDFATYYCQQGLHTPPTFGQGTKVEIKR	Y
AC9-B11 全抗体 (full antibody, human IgG1/kappa) (antibody, V domains shown, Full antibody expressed in HEK293E from vector pTSE) VH: EVQLVESGGGLVQPGGSLRLSCAASGCTWSDSWDHWVRQAPGKGLEWVDYESTYGGSTYYADSVKGRFTISADTSKNTAYLQMNSLRAEDTAVYYCARRHWNATFDYWGQGTLVTVSS VL: DIQMTQSPSSLSASVGDRVTITCRASQNIHNSLAWYQQKPGKAPKLLIYGASSLESGVPSRFSGSGSGTDFTLTISSLQPEDFATYYCQQERRVPWTFGQGTKVEIKR	Y
AH10-B11 全抗体 (full antibody, human IgG1/kappa) (antibody, V domains shown, Full antibody expressed in HEK293E from vector pTSE; also called AH10-811) VH: EVQLVESGGGLVQPGGSLRLSCAASGWTLSDSLQHWVRQAPGKGLEWVGFQSAYGGSTYYADSVKGRFTISADTSKNTAYLQMNSLRAEDTAVYYCARRHYYTAWDYWGQGTLVTVSS VL: DIQMTQSPSSLSASVGDRVTITCRASQNIHNSLAWYQQKPGKAPKLLIYGASSLESGVPSRFSGSGSGTDFTLTISSLQPEDFATYYCQQERRVPWTFGQGTKVEIKR	N
BH2-B11 全抗体 (full antibody, human IgG1/kappa) (antibody, V domains shown, Full antibody expressed in HEK293E from vector pTSE) VH: EVQLVESGGGLVQPGGSLRLSCAASGLTWSDSYKHWVRQAPGKGLEWVHWNSTYGGSTYYADSVKGRFTISADTSKNTAYLQMNSLRAEDTAVYYCARRHFASTWDYWGQGTLVTVSS VL: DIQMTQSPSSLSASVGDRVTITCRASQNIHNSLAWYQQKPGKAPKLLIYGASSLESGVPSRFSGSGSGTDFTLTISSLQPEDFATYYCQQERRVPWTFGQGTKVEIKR	Y
